- measurementTarget: Ectonucleoside triphosphate diphosphohydrolase 2 (Homo sapiens) (UniProt Q9Y5L3)
- Sequence (Q9Y5L3 whole entry): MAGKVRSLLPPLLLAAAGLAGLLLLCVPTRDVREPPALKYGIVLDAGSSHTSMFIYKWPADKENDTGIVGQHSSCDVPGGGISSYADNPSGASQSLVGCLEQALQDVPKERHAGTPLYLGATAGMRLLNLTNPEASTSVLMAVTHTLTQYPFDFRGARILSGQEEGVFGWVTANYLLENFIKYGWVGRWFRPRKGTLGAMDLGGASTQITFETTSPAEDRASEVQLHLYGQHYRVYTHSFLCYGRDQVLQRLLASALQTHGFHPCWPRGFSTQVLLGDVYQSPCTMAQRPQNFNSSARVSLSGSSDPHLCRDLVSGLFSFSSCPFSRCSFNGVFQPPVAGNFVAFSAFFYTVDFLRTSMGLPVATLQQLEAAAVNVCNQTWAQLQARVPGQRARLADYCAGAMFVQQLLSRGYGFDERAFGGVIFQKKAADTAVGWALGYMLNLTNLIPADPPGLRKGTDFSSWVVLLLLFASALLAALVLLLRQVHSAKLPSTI
- testSummary: Inhibition of human NTPDase-2 using ATP as substrate assessed as inorganic phosphate release at 100 uM after 15 mins relative to control
testReadout: inhibition (%)
Respond numerically; units are % and should not be typed.

### Prompt What value of measured inhibition is listed for Nc1ncnc2c1ncn2[C@@H]1O[C@H](CO[P@@](O)(=S)OP(=O)(O)C(Cl)(Cl)P(=O)(O)O)[C@@H](O)[C@H]1O ?
### Response 9.9

### Prompt So what does the record say about inhibition for Nc1ncnc2c1ncn2[C@@H]1O[C@H](COP(=O)(O)CP(=O)(O)OP(O)(O)=S)[C@@H](O)[C@H]1O ?
### Response 16.3

### Prompt Requested read-out: inhibition. Entry: Nc1ncnc2c1ncn2[C@@H]1O[C@H](CO[P@](O)(=S)OP(=O)(O)C(Cl)(Cl)P(=O)(O)O)[C@@H](O)[C@H]1O
### Response 11.2

### Prompt Which inhibition is listed for Nc1ncnc2c1ncn2[C@@H]1O[C@H](CO[P@](O)(=S)OP(=O)(O)CP(=O)(O)O)[C@@H](O)[C@H]1O ?
### Response 15.4

### Prompt # get_value(readout='inhibition', item= Nc1ncnc2c1ncn2[C@@H]1O[C@H](CO[P@@](O)(=S)OP(=O)(O)CP(=O)(O)O)[C@@H](O)[C@H]1O )
### Response 12.7

---

- measurementTarget: Ectonucleoside triphosphate diphosphohydrolase 1 (Homo sapiens) (UniProt P49961)
- Sequence (P49961 whole entry): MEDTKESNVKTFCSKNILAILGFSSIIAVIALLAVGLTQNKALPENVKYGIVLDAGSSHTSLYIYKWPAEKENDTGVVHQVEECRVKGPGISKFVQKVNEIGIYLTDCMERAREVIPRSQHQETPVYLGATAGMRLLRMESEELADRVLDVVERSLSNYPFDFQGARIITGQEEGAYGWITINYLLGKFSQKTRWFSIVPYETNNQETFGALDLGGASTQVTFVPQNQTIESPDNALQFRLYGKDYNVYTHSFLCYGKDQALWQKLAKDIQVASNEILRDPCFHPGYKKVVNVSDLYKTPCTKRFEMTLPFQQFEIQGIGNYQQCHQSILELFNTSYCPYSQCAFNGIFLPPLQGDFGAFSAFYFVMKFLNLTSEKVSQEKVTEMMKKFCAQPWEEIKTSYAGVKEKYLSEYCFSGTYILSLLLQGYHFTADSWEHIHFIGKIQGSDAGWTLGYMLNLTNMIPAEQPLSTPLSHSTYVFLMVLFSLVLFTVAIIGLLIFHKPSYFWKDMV
- testSummary: Inhibition of human NTPDase-1 using ATP as substrate assessed as inorganic phosphate release at 100 uM after 15 mins relative to control
Consider the following compounds; for each one, report its inhibition.
Unit % implied. Number only.

### Prompt Recorded inhibition of Nc1ncnc2c1ncn2[C@@H]1O[C@H](CO[P@@](O)(=S)OP(=O)(O)C(Cl)(Cl)P(=O)(O)O)[C@@H](O)[C@H]1O , please.
### Response 0.5

### Prompt For the compound Nc1ncnc2c1ncn2[C@@H]1O[C@H](CO[P@](O)(=S)OP(=O)(O)C(Cl)(Cl)P(=O)(O)O)[C@@H](O)[C@H]1O , what inhibition is on record?
### Response 0.5

### Prompt // inhibition lookup, key: Nc1ncnc2c1ncn2[C@@H]1O[C@H](COP(=O)(O)CP(=O)(O)OP(O)(O)=S)[C@@H](O)[C@H]1O
### Response 58.4

### Prompt Entry Nc1ncnc2c1ncn2[C@@H]1O[C@H](CO[P@](O)(=S)OP(=O)(O)CP(=O)(O)O)[C@@H](O)[C@H]1O has what inhibition?
### Response 18.7

### Prompt So what's the measured inhibition for this one? Nc1ncnc2c1ncn2[C@@H]1O[C@H](CO[P@@](O)(=S)OP(=O)(O)CP(=O)(O)O)[C@@H](O)[C@H]1O
### Response 21.6

---

- measurementTarget: Ectonucleotide pyrophosphatase/phosphodiesterase family member 1 (Homo sapiens)
- Sequence (P22413 whole entry): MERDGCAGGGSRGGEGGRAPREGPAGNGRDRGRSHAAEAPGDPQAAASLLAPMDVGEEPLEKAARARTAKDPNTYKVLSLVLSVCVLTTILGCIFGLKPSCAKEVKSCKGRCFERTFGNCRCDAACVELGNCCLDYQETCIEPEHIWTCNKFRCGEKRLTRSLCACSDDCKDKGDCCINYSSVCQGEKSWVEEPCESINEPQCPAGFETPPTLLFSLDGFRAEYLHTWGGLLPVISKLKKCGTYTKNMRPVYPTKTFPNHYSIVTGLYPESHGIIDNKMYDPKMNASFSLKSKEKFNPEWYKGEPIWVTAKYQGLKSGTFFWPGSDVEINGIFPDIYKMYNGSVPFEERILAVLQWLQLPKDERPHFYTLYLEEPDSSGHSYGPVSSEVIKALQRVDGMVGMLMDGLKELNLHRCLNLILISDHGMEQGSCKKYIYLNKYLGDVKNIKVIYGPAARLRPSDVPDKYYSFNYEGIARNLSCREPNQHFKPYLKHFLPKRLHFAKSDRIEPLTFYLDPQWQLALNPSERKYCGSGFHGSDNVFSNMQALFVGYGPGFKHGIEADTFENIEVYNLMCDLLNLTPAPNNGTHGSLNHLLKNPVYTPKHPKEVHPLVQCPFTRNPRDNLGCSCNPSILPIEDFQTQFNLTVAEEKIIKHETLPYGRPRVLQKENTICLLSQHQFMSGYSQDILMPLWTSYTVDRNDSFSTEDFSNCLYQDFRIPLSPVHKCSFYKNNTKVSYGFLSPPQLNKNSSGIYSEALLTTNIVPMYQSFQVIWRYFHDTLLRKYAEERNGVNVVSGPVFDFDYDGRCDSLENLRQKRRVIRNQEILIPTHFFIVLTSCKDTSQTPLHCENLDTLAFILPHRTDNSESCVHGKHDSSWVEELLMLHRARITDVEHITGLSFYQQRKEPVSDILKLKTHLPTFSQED
- testSummary: Mixed type inhibition of human NPP1 using pNP-TMP as substrate assessed as dissociation constant for enzyme-inhibitor-substrate complex after 20 mins by Dixon and Cornish-Bowden method
testReadout: pKi
Would you please state pKi, meaning minus log10 of the concentration in mol/L, as a bare number?

### Prompt Look up pKi for this molecule: Nc1ncnc2c1ncn2[C@@H]1O[C@H](CO[P@](O)(=S)OP(=O)(O)CP(=O)(O)O)[C@@H](O)[C@H]1O
### Response 5.35

---

Would you kindly list IC50 for each of these molecules?
Your answer is read as µM, so omit the unit and give the number.

### Prompt Fill in the recorded IC50 for this molecule, with Ectonucleotide pyrophosphatase/phosphodiesterase family member 1 (Homo sapiens) as test system: Nc1ncnc2c1ncn2[C@@H]1O[C@H](CO[P@](O)(=S)OP(=O)(O)CP(=O)(O)O)[C@@H](O)[C@H]1O
### Response 16.3

### Prompt I'm curious: which IC50 was measured for Nc1ncnc2c1ncn2[C@@H]1O[C@H](CO[P@@](O)(=S)OP(=O)(O)CP(=O)(O)O)[C@@H](O)[C@H]1O tested on Ectonucleotide pyrophosphatase/phosphodiesterase family member 1 (Homo sapiens)?
### Response 18.7

### Prompt Please tell me: IC50 of Nc1ncnc2c1ncn2[C@@H]1O[C@H](CO[P@@](O)(=S)OP(=O)(O)C(Cl)(Cl)P(=O)(O)O)[C@@H](O)[C@H]1O , system Ectonucleotide pyrophosphatase/phosphodiesterase family member 1 (Homo sapiens)?
### Response 31.2

### Prompt Short answer please: IC50, Ectonucleotide pyrophosphatase/phosphodiesterase family member 1 (Homo sapiens), entry Nc1ncnc2c1ncn2[C@@H]1O[C@H](CO[P@](O)(=S)OP(=O)(O)C(Cl)(Cl)P(=O)(O)O)[C@@H](O)[C@H]1O
### Response 0.6

---

- measurementTarget: P2Y purinoceptor 11 (Homo sapiens)
- Sequence (Q96G91 whole entry): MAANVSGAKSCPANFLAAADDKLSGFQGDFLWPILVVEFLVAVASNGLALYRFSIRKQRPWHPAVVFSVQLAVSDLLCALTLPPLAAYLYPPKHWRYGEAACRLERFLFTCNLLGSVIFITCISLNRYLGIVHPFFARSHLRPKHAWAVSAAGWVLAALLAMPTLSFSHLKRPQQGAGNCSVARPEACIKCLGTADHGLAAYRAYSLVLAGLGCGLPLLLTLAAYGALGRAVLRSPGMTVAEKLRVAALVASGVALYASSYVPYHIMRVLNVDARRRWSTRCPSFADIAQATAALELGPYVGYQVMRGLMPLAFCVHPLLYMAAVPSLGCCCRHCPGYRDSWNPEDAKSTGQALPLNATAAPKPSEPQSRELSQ
- testSummary: Agonist activity at human P2Y11 receptor expressed in human 1321N1 cells assessed as increase of intracellular calcium level after 30 mins using fura-2 AM by fluorescence assay
- Type: functional, cell-based
testReadout: EC50 (nM)
// note: answer is a bare numeric in nM

### Prompt Please provide the recorded EC50 for Nc1ncnc2c1ncn2[C@@H]1O[C@H](CO[P@@](O)(=S)OP(=O)(O)CP(=O)(O)O)[C@@H](O)[C@H]1O , tested on P2Y purinoceptor 11 (Homo sapiens).
### Response 900
